Data origin: ChEMBL document CHEMBL3525900

procedure details: AUC (0 to infinity) in female Sprague-Dawley rat plasma at 5 mg/kg, iv administered as single dose by LC/MS/MS analysis
Type: ADME, organism-based
Set-up: time infinity, dose 5 mg/kg, dosed compound name [14C]Sunitinib, route intravenous

smiles representation: CCN(CC)CCNC(=O)c1c(C)[nH]c(/C=C2\C(=O)Nc3ccc(F)cc32)c1C
AUC(0-inf) [ng·h/mL]: 7200

----------
procedure details: Terminal half life in male cynomolgus monkey plasma at 6 mg/kg, po administered as single dose by LC/MS/MS analysis
Assay type: ADME, organism-based, Macaca fascicularis
Parameters: dose 6 mg/kg, dosed compound name [14C]Sunitinib, route oral
condition description: read-out: beta t1/2 (converted)

smiles representation: CCN(CC)CCNC(=O)c1c(C)[nH]c(/C=C2\C(=O)Nc3ccc(F)cc32)c1C
half-life, h: 18

----------
procedure details: Drug excretion in feces of human treated with [14C]sunitinib at 50 mg, po administered as single dose by liquid scintillation counting
condition description: in vivo
measured property: Compound recovery

compound: Cc1[nH]c(/C=C2\C(=O)Nc3ccc(F)cc32)c(C)c1C(=O)NCCN
measured property: Compound recovery
reported measurement: metabolite_not_detected
//
compound: CCNCC(O)NC(=O)c1c(C)[nH]c(/C=C2\C(=O)Nc3ccc(F)cc32)c1C (stereo not given)
measured property: Compound recovery
reported measurement: metabolite_not_detected
//
compound: Cc1[nH]c(/C=C2\C(=O)Nc3ccc(F)cc32)c(C)c1C(=O)NCC(=O)O
measured property: Compound recovery
reported measurement: metabolite_not_detected
//
compound: CCN(CC)CCNC(=O)c1c(C)[nH]c(CC2C(=O)Nc3ccc(F)cc32)c1C (stereo not given)
measured property: Compound recovery
reported measurement: metabolite_not_detected
//
compound: CCNCCNC(=O)c1c(C)[nH]c(/C=C2\C(=O)Nc3ccc(F)cc32)c1C
measured property: Compound recovery
reported measurement: 25%

----------
procedure details: AUC (0 to infinity) in male Sprague-Dawley rat plasma at 15 mg/kg, po administered as single dose by LC/MS/MS analysis
Assay type: ADME, organism-based
Parameters: time infinity, dose 15 mg/kg, dosed compound name [14C]Sunitinib, route oral

smiles representation: CCN(CC)CCNC(=O)c1c(C)[nH]c(/C=C2\C(=O)Nc3ccc(F)cc32)c1C
result unit: ng·h/mL
AUC(0-inf): 11800

----------
procedure details: Cmax in human plasma at 50 mg, po administered as single dose by LC/MS/MS analysis
Type: ADME, organism-based
Design: dose 50 mg, route oral, dosed compound name [14C]Sunitinib
measured property: Cmax (ng/mL)

compound: CCN(CC)CCNC(=O)c1c(C)[nH]c(/C=C2\C(=O)Nc3ccc(F)cc32)c1C [SUNITINIB]
measured property: Cmax
reported measurement: 24.4

----------
procedure details: AUC (0 to infinity) in female cynomolgus monkey plasma at 6 mg/kg, po administered as single dose by LC/MS/MS analysis
Type: ADME, organism-based, Macaca fascicularis
Parameters: time infinity, dose 6 mg/kg, dosed compound name [14C]Sunitinib, route oral

smiles representation: CCN(CC)CCNC(=O)c1c(C)[nH]c(/C=C2\C(=O)Nc3ccc(F)cc32)c1C
AUC(0-inf): 1100 ng·h/mL
